- Test system: HeLa
- Measurement Notes: Cellular uptake in human HeLa cells assessed as cytoplasmic localization at 1 uM after 48 hrs by fluorescence microscopy
- Assay type: ADME, cell-based
Square brackets hold non-standard residues; d marks the D form. Peptide text beside a SMILES is read from it. dalloThr(PO3H2) = C[C@@H](OP(=O)(O)O)[C@@H](N)C(=O)O; 2Nal = N[C@@H](Cc1ccc2ccccc2c1)C(=O)O; Pip = O=C(O)[C@@H]1CCCCN1

Compound: C[C@H](O)[C@H]1NC(=O)[C@@H](CCCNC(=N)N)NC(=O)[C@@H](CCCNC(=N)N)NC(=O)[C@H](CCC(N)=O)NC(=O)[C@H](CCCNC(=N)N)NC(=O)[C@H](Cc2ccc3ccccc3c2)NC(=O)[C@@H]2CCCCN2C1=O
Drug uptake: Active

Compound: C[C@@H](OP(=O)(O)O)[C@H]1NC(=O)[C@@H](CCCNC(=N)N)NC(=O)[C@@H](CCCNC(=N)N)NC(=O)[C@H](CCC(N)=O)NC(=O)[C@H](CCCNC(=N)N)NC(=O)[C@H](Cc2ccc3ccccc3c2)NC(=O)[C@@H]2CCCCN2C1=O
Drug uptake: Active

Compound: C[C@@H](OP(=O)(O)O)[C@H]1NC(=O)[C@H](CCCNC(=N)N)NC(=O)[C@H](CCCNC(=N)N)NC(=O)[C@H](CCCNC(=N)N)NC(=O)[C@H](CCC(N)=O)NC(=O)[C@H](CCCNC(=N)N)NC(=O)[C@H](CCCNC(=N)N)NC(=O)[C@H](Cc2ccc3ccccc3c2)NC(=O)[C@@H]2CCCCN2C1=O (cyclo([2Nal]RRQRRR[dalloThr(PO3H2)][Pip]))
Drug uptake: Active

----------
- Tested on: HeLa
- Measurement Notes: Cellular uptake in human HeLa cells assessed as cytoplasmic localization at 1 uM after 48 hrs by fluorescence microscopy
- Assay type: ADME, cell-based
Square brackets hold non-standard residues; d marks the D form. Peptide text beside a SMILES is read from it. d(pT) = C[C@H](OP(=O)(O)O)[C@@H](N)C(=O)O; 2Nal = N[C@@H](Cc1ccc2ccccc2c1)C(=O)O; Pip = O=C(O)[C@@H]1CCCCN1

Molecule: C[C@H](O)[C@H]1NC(=O)[C@H](CCCNC(=N)N)NC(=O)[C@H](CCCNC(=N)N)NC(=O)[C@H](CCCNC(=N)N)NC(=O)[C@H](CCC(N)=O)NC(=O)[C@H](CCCNC(=N)N)NC(=O)[C@H](CCCNC(=N)N)NC(=O)[C@H](Cc2ccc3ccccc3c2)NC(=O)[C@@H]2CCCCN2C1=O (cyclo([2Nal]RRQRRR[dT][Pip]))
Drug uptake: Active
//
Molecule: C[C@H](O)[C@H]1NC(=O)[C@@H](CCCNC(=N)N)NC(=O)[C@@H](CCCNC(=N)N)NC(=O)[C@H](CCC(N)=O)NC(=O)[C@@H](CCCNC(=N)N)NC(=O)[C@@H](CCCNC(=N)N)NC(=O)[C@@H](CCCNC(=N)N)NC(=O)[C@H](CCCNC(=N)N)NC(=O)[C@H](Cc2ccc3ccccc3c2)NC(=O)[C@@H]2CCCCN2C1=O (cyclo([dR][dR][dT][Pip][2Nal]R[dR][dR][dR]Q))
Drug uptake: Active
//
Molecule: C[C@H](OP(=O)(O)O)[C@H]1NC(=O)[C@@H](CCCNC(=N)N)NC(=O)[C@@H](CCCNC(=N)N)NC(=O)[C@H](CCC(N)=O)NC(=O)[C@@H](CCCNC(=N)N)NC(=O)[C@@H](CCCNC(=N)N)NC(=O)[C@@H](CCCNC(=N)N)NC(=O)[C@H](CCCNC(=N)N)NC(=O)[C@H](Cc2ccc3ccccc3c2)NC(=O)[C@@H]2CCCCN2C1=O (cyclo([dR][dR][d(pT)][Pip][2Nal]R[dR][dR][dR]Q))
Drug uptake: Active
